# interaction score per entry
Target: T1, 4H3865-AA
T1 chain: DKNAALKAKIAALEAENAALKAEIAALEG
Test: two-hybrid library CCmax;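 also: natural log of median RNA to DNA barcode read ratio; higher means stronger binding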
Conditions: mean of both orientations

{"columns": ["binder", "interaction score"],
 "data": [
  ["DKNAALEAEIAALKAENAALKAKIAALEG [4H3165-AA]", -0.353],
  ["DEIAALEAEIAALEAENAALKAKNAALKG [4H32-AA]", 1.4],
  ["DKNAALKAEIAALEAEIAALEAENAALKG [4H3588-AA]", -1.15],
  ["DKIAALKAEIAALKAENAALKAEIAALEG [4H2649-AA]", -1.59]
]}
